What Kd was measured for each of the following?
biological target: T1, MAGI1-3/6 (MBP fusion of the third of the six PDZ domains of MAGI1) (mouse, UniProt Q6RHR9-1 613-752); assay: SPR; details: both partners purified
T1 construct: source: E. coli BL21 DE3, purified (amylose column, Superdex 75 gel filtration)
T1 sequence (Q6RHR9 613-752): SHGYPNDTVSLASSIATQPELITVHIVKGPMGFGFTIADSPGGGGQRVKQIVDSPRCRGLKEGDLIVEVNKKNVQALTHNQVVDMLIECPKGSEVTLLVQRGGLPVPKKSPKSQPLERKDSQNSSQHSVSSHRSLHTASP
Ends that are not written are not given here. * marks the point of attachment. Biotin = O=C1N[C@H]2[C@H](CS[C@H]2CCCCC(=O)*)N1
Only the number, expressed in µM, is required.

[ask] Return the recorded Kd value; entry: Biotin-CNTVTVETVV (also called MAS long; source: synthetic peptide (JPT Peptide Technologies)) [MAS_10 (long peptide of Proto-oncogene Mas: the last ten residues)]
[reply] 123

[ask] Using known records, supply Kd for Biotin-GSGAGICTIV (also called TTC24 short; source: synthetic peptide (JPT Peptide Technologies)) [TTC24_05 (short peptide of Tetratricopeptide repeat protein 24: GSGAG and the last five residues)]
[reply] 34

[ask] Write down Kd measured for item Biotin-GSGAGKETRV (also called CYSLTR2 short; source: synthetic peptide (JPT Peptide Technologies)) [CYSLTR2_05 (short peptide of Cysteinyl leukotriene receptor 2: GSGAG and the last five residues)]
[reply] 21
